Each item that follows carries a reported hEphB4-SEAP-: absorbance at 450 nm, percentage with respect to hEphA4-SEAP-His as 100%.
# ASSAY_TARGET: T1, human EphB4 (Homo sapiens, UniProt P54760)
# T1 construct: a protein of the extracellular region of each human Eph receptor fused with the SEAP protein and the His tag; made in house; host or cells: Expi293F cells
# T1 sequence (P54760 16-539 limits assumed): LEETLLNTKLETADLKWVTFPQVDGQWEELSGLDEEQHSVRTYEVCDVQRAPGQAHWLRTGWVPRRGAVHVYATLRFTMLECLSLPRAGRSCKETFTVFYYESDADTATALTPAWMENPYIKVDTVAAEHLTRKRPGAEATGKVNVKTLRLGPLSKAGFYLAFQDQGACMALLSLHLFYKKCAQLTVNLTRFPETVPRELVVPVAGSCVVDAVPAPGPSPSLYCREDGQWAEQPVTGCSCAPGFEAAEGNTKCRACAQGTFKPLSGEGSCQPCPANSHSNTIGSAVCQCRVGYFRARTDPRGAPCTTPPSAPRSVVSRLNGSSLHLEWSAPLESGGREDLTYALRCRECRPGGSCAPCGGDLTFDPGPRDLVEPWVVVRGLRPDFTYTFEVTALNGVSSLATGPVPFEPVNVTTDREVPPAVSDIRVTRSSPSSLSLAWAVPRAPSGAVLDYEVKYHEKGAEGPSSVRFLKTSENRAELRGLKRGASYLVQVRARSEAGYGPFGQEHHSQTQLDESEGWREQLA
# EXPERIMENT_SUMMARY: Selectivity ELISA of humanized antibodies for human Eph receptor
# Type: binding
# PROTOCOL_CONDITIONS: coated protein 1 nM
PARAMETER: hEphB4-SEAP-: absorbance at 450 nm, percentage with respect to hEphA4-SEAP-His as 100% (%)

{"MOLECULE": "77 (antibody, V domains shown, synthetic humanized antibody heavy chain variable region sequence; synthetic humanized antibody light chain variable region sequence) VH: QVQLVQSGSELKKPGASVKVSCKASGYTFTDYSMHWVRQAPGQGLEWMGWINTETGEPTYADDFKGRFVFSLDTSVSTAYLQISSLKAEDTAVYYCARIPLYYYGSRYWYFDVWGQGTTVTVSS VL: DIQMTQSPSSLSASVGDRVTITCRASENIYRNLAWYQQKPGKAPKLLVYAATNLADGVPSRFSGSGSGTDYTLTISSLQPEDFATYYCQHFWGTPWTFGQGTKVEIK", "MEASURE_UNIT": "%", "QUANTITATIVE_RESULT": 4.5}
{"MOLECULE": "145 (antibody, V domains shown, synthetic humanized antibody heavy chain variable region sequence; synthetic humanized antibody light chain variable region sequence) VH: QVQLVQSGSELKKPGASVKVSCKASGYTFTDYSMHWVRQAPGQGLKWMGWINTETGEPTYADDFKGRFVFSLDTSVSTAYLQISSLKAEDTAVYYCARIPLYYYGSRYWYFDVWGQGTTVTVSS VL: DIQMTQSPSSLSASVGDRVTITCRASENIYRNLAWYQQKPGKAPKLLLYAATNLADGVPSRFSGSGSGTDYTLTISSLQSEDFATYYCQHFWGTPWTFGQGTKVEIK", "MEASURE_UNIT": "%", "QUANTITATIVE_RESULT": 6.7}
{"MOLECULE": "69 (antibody, V domains shown, synthetic humanized antibody heavy chain variable region sequence; synthetic humanized antibody light chain variable region sequence) VH: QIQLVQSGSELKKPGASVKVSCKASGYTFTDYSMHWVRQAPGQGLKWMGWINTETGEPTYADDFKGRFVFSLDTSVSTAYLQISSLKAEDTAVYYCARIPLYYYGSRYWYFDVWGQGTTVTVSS VL: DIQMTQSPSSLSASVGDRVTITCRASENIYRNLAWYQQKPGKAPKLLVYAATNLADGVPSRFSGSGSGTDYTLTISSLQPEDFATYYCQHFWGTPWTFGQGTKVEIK", "MEASURE_UNIT": "%", "QUANTITATIVE_RESULT": 5.5}
